Reference source for all entries: PubChem BioAssay AID1508600

# protocol.details: Components of the Cytosolic LPS Sensing Pathway: Gene Identification via Genome-wide siRNA Screen;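 further: robust z of the log signal after scaling to non-targeting control siRNA wells of the plate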
# experimental.parameters: RAW264.7 macrophages, IL-1a HTRF, actives lie on both sides, screened at 100 nM (by protocol), cells primed 5 h with Pam3CSK4 first
In all, about 53,000 sequences went through this assay and about 3,700 (7%) were called active.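 How the source made its calls: active means gene knockdowns whose robust z-score for IL-1 alpha signal is at least 2 or at most -2, so actives lie on both sides; inactive means the rest.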 The entries come from a sample that favours actives as a whole.
Can you answer with just one of these options? true (1) for active, false (0) for inactive

{"columns": ["residue.sequence", "assigned.class"],
 "data": [
  ["GCGUGGAUAGUUUCACAGCTT against Fbp1", "false (0)"],
  ["GCACAGUAACCUAAAAUACTT against Tanc2", "false (0)"],
  ["CGGGAAACUUAGGUAUGAUTT against Olfr1009", "true (1)"],
  ["CCGGAGUAACUCUCUAACATT against Apbb3", "false (0)"],
  ["GCAUGAGGAAAAAUCUUCATT against Neurod4", "false (0)"]
]}

Pending sequence:
Request: Look up the recorded call for CCAACAGCAACGAUGACAATT against Thoc5 in this test.
Response: true (1)

----------
# protocol.details: Components of the Cytosolic LPS Sensing Pathway: Gene Identification via Genome-wide siRNA Screen;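 further: robust z of the log signal after scaling to non-targeting control siRNA wells of the plate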
# experimental.parameters: RAW264.7 macrophages, IL-1a HTRF, actives lie on both sides, screened at 100 nM (by protocol), cells primed 5 h with Pam3CSK4 first
The campaign covered roughly 53,000 sequences. About 3,700 (7%) were called active.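 How the source made its calls: active means gene knockdowns whose robust z-score for IL-1 alpha signal is at least 2 or at most -2, so actives lie on both sides; inactive means the rest.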 The sample as a whole holds a higher share of actives than the screen did.
Can you answer with just one of these options? 1 for active, -1 for inactive

Sample answers from the record:
{"columns": ["residue.sequence", "assigned.class"],
 "data": [
  ["GGUUAUGGAGACAAAGGAUTT against Sik1", -1],
  ["GCAGAGUCACCUUACUAACTT against Fam122b", -1]
]}

Request: Look up the recorded call for GGCCAGGAGAAGAAGAUACTT against Tet2 in this test.
Response: -1

Request: Look up the recorded call for GCGAUAAGCAGAAUGGCAGTT against 8030462N17Rik in this test.
Response: -1

Request: Look up the recorded call for GGAUCUGAUCCAGACUUCUTT against Ndrg1 in this test.
Response: 1

Request: Look up the recorded call for GGAAAGCAAGUCGUAAGCCTT against Mrps10 in this test.
Response: -1

Request: Look up the recorded call for GCUCCUCUCAGGUGUACGATT against B9d2 in this test.
Response: 1

Request: Look up the recorded call for CCAAUCUUAGUCAUCCAUUTT against Foxo6 in this test.
Response: 1

Request: Look up the recorded call for CCCUACACGCAGGAGUUUUTT against Gtf3c1 in this test.
Response: -1

Request: Look up the recorded call for GGAGAAGUUCCCUAACAUGTT against Ppan in this test.
Response: -1

Request: Look up the recorded call for GGGAAGGCACACCAUAGAATT against Zfp369 in this test.
Response: -1

Request: Look up the recorded call for CCUAAUAAGCCAUAUGCAUTT against Alkbh8 in this test.
Response: -1

Request: Look up the recorded call for GGUUCUUGUUCAUUCUCUUTT against Slc4a4 in this test.
Response: -1

Request: Look up the recorded call for GGGAACAAAUUCAUUGUAUTT against Eny2 in this test.
Response: 1

Request: Look up the recorded call for GGCUGUGCAUUAUAUCCUUTT against Lhfpl1 in this test.
Response: -1

Request: Look up the recorded call for GGCCUACAUACUCCUGAAGTT against Ttc21a in this test.
Response: -1
